Data origin: ChEMBL document CHEMBL4138079

System: MCF7
Assay: Cytotoxicity against human MCF7 cells assessed as reduction in cell viability after 48 hrs by MTT assay
Type: functional, cell-based
Conditions: MCF7, 48 h
What pIC50 was measured for each of the following?
Would you please state pIC50, meaning minus log10 of the concentration in mol/L, as a bare number?

Q: Supply pIC50 value. Item: `CC1(C)CC[C@]2(C)CC[C@]3(C)C(=CC[C@@H]4[C@@]5(C)CC[C@H](O)C(C)(C)[C@@H]5CC[C@]43C)[C@@H]2C1`
A: 4.45

Q: Using the record for `C[C@@H]1C[C@H]([C@H](O)C(C)(C)O)O[C@H]2OC(=O)[C@@]3(C)[C@@H]4CC[C@H]5C(C)(C)C(=O)C=C[C@@]56C[C@@]46CC[C@]3(C)[C@H]21` , state its measured pIC50.
A: 4.57

Q: Output pIC50 of `CC(=O)O[C@H]1[C@H](O[C@H]2CC[C@]34C[C@]35CC[C@]3(C)[C@@H]([C@@]6(C)CC[C@@H](C(C)(C)O)O6)[C@@H](O)C[C@@]3(C)[C@@H]5C[C@H](O)[C@H]4C2(C)C)OC[C@@H](O)[C@@H]1O`
A: 5.53
